molecular target: Kdr (Homo sapiens, UniProt P35968); construct: Kinases are expressed as either kinase domains or full length constructs; made in house; assay: Kinase inhibition assay (33P transfer), Kdr; format: biochemical; conditions: Table 3; read-out: KDR-1
Sequence (P35968 20-1356, species assumed): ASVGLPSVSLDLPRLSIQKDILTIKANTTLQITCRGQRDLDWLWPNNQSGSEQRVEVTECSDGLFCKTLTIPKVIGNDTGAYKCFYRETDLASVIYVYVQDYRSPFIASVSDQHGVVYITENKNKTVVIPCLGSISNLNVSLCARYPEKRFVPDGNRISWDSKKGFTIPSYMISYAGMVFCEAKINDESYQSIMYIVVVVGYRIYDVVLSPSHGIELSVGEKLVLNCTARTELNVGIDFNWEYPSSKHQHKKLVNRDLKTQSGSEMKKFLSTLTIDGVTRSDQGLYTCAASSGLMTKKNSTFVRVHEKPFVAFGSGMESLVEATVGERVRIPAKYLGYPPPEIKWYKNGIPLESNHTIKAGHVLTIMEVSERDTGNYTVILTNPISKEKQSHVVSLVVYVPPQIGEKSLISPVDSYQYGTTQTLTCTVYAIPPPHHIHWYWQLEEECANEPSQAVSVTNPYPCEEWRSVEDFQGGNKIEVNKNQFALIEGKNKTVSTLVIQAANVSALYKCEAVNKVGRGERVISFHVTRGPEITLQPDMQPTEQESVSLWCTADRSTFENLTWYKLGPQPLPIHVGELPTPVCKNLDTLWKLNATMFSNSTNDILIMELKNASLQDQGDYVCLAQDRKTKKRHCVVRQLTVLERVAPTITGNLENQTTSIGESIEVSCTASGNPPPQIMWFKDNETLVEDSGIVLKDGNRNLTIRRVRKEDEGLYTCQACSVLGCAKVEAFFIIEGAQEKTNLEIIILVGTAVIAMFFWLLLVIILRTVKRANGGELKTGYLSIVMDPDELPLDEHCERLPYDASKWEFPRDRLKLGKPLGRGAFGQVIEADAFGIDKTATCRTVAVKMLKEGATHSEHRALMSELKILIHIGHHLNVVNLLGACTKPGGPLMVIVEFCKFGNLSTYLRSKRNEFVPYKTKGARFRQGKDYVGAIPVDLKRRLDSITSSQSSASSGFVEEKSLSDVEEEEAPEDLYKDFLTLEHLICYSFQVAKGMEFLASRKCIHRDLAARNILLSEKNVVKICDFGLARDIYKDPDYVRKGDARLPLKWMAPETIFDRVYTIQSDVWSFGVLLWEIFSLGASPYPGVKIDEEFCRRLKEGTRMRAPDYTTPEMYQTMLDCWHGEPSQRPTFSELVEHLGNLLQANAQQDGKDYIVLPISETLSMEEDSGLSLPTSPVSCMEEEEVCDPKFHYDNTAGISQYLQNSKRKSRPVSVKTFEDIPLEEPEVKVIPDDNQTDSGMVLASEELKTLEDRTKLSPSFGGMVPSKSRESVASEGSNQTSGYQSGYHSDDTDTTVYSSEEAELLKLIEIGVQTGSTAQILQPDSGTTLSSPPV
pIC50: −log10 of the molar value.
pIC50 by entry:
measure name: pIC50

compound | reported
COc1ccc(Nc2ncnc(-n3c(N)nc4ccccc43)n2)cc1OC [Compound 285] | > 5.96
COc1cc(Nc2ncnc(-n3c(NCc4ccccn4)nc4ccccc43)n2)cc(OC)c1OC [Compound 414] | > 6.08
O=[N+]([O-])c1cccc(Nc2ncnc(-c3cccs3)n2)c1 [Compound 352] | < 4.82
CCOC(=O)Cc1ccc(Nc2ncnc(-c3ccccc3)n2)cc1 [Compound 164] | < 4.87
COc1cc(Nc2ncnc(-n3c(=O)sc4cc(Br)ccc43)n2)cc(OC)c1OC [Compound 426] | < 5.04
